- assay-explanation: yeast TOR reporter LAP4-GFP retest – cell-based, third cherry pick, flow cytometry, confirmation (AID 504338);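 also: ratio to plate DMSO wells so 100% equals DMSO level rather than 0%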
- experimental-setup: S. cerevisiae LAP4-GFP strain, 3 h, at 10 µM
Calls of active or inactive are those of the source.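 The calls were made as follows: active = GFP response vs DMSO above 150% with enough events counted; inconclusive = fewer than 70 events counted for a yeast strain; inactive = the rest.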
// allowed return values: active, inactive

Known results for compounds:
{"compound": "CC1=NNC(=O)/C1=C\\c1cn(-c2ccccc2)nc1-c1ccc(F)cc1", "label-class": "active"}
{"compound": "CNc1nc(C)c([N+](=O)[O-])c(Nc2ccc(OC)cc2)n1", "label-class": "inactive"}
{"compound": "O=C(Nc1ccccc1)O/N=C1\\CCCCC1c1ccc([N+](=O)[O-])cc1[N+](=O)[O-] (stereo unspecified)", "label-class": "inactive"}
{"compound": "Nc1c(C(=O)O)ccc2c1C(=O)c1ccccc1C2=O", "label-class": "inactive"}
{"compound": "COC(=O)c1cc(=O)c2cccc(OC)c2[nH]1", "label-class": "inactive"}

Please examine the following record next.
Exam item: // param item: "CSc1nc(S(C)(=O)=O)nc2[nH]c(=O)[nH]c12" ; yields the recorded call
Marked response: inactive

----------
- assay-explanation: yeast TOR reporter LAP4-GFP retest – cell-based, third cherry pick, flow cytometry, confirmation (AID 504338);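 also: ratio to plate DMSO wells so 100% equals DMSO level rather than 0%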
- experimental-setup: S. cerevisiae LAP4-GFP strain, 3 h, at 10 µM, active compounds read high
parameter: GFP response vs DMSO (%)
Give a bare numeral; the unit % is implied.

Known results for molecules:
{"molecule": "Cc1ccc(Nc2nc(N)[nH]c(=O)c2N=O)cc1", "numeric-readout": 104}
{"molecule": "COCCNc1nc(N)c([N+](=O)[O-])c(Nc2ccc(F)cc2)n1", "numeric-readout": 106}
{"molecule": "COc1ccccc1Nc1nc(NCC(C)C)nc(N)c1[N+](=O)[O-]", "numeric-readout": 104}
{"molecule": "C/C(=N\\NC(=O)c1cccc2ccccc12)c1cccnc1", "numeric-readout": 104}
{"molecule": "CN1CCN(C(=O)c2cc(COc3ccc(F)cc3Cl)on2)CC1c1ccccc1 (stereo unspecified)", "numeric-readout": 103}
{"molecule": "O=C(Nc1ccccc1Cl)ON=C1c2ccccc2-c2ccccc21", "numeric-readout": 108}

--- query ---
Exam item: Using known records, supply GFP response vs DMSO for "CNc1cccc2c1C(=O)c1ccccc1C2=O"
Marked response: 107

----------
- assay-explanation: yeast TOR reporter LAP4-GFP retest – cell-based, third cherry pick, flow cytometry, confirmation (AID 504338);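 also: ratio to plate DMSO wells so 100% equals DMSO level rather than 0%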
- experimental-setup: S. cerevisiae LAP4-GFP strain, 3 h, at 10 µM, active compounds read high
parameter: GFP response vs DMSO (%)
Kindly answer with a numeric value in %, unit omitted.

Check out these entries, answers already filled in.
{"molecule": "Cc1ccc(C(=O)Nc2nc(-c3ccccn3)cs2)o1", "units-label": "%", "numeric-readout": 103}
{"molecule": "Cc1nc2c(O)cccc2cc1CO", "units-label": "%", "numeric-readout": 101}
{"molecule": "CC(=O)CC(=O)Nc1ccc(C(N)=O)cc1", "units-label": "%", "numeric-readout": 101}

Exam item: Provide measured GFP response vs DMSO value, entry: "CCN(CC)c1ncnc2ccc(Br)cc12"
Marked response: 101

Exam item: Supply recorded GFP response vs DMSO for "O=C(O)c1ccc2cccc(O)c2n1" here.
Marked response: 100

Exam item: Find the measured GFP response vs DMSO of "Cc1ccc2c(C)ccc(O)c2n1" and report it.
Marked response: 101

Exam item: State its GFP response vs DMSO: "COc1ccc(OC)c(Nc2nc(NCCC(C)C)nc(N)c2[N+](=O)[O-])c1"
Marked response: 103

Exam item: Find the measured GFP response vs DMSO of "Cc1ccc(C(=O)/C=C/Nc2cccc(O)c2)cc1" and report it.
Marked response: 117

Exam item: Given "COc1ccc(N/C(C)=C/C(=O)c2ccccc2)cc1" , respond with its GFP response vs DMSO.
Marked response: 104

Exam item: Determine its reported GFP response vs DMSO: "Cc1nc(Nc2ccc(Cl)cc2)c(C#N)c(=O)[nH]1"
Marked response: 107

Exam item: Please report GFP response vs DMSO for the following molecule: "O=C(Nc1nc(-c2ccccn2)cs1)c1ccccc1-n1cnnn1"
Marked response: 94.4

Exam item: Quote GFP response vs DMSO reported for "CCN(CC)C(=O)Oc1cc(=O)n(C)c2ccccc12" please.
Marked response: 101

Exam item: Return value of GFP response vs DMSO for input Cc1ccc(NC(=O)O/N=C2\CCCCC2c2ccc([N+](=O)[O-])cc2[N+](=O)[O-])cc1 (centres undefined) , no commentary.
Marked response: 103

Exam item: // Input: "O=C(O)c1ccc2cccnc2c1O" . Output its GFP response vs DMSO only.
Marked response: 106

Exam item: Specify measured GFP response vs DMSO for "CCCC(=O)Nn1cnc2c(c1=O)C1(CCCCC1)Cc1ccccc1-2" .
Marked response: 103
